Measured protein stability index values are reported for all entries that follow.
B1: NEUROD6 (parent)
chain: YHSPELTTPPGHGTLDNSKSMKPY

Variants of: B1
Assay: protein stability index of a GFP-peptide fusion (GPS, HEK-293T) (PSI 1-6); higher = more stable;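 also: lentivirally expressed fusions sorted by FACS into six bins by GFP to DsRed ratio, PSI derived from sequencing read proportions per bin multiplied by bin number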
Details: c terminus: a fixed tail appended
READOUT_KIND: protein stability index

>>> result("YHSPELTTPPGHGTLDNSKSMKPL [Y24L]")
2.27
>>> result("YHSPELTTPPGHGTLRNSKSMKPY [D16R]")
1.63
>>> result("YHSPELTTPDGHGTLDNSKSMKPY [P10D]")
2.74
>>> result("YHSPELTTPPAHGTLDNSKSMKPY [G11A]")
2.34
>>> result("YHSPMLTTPPGHGTLDNSKSMKPY [E5M]")
1.98
>>> result("YHSPELTTPPGHFTLDNSKSMKPY [G13F]")
2.18
>>> result("YHSPELTTPAGHGTLDNSKSMKPY [P10A]")
1.81
>>> result("YHSPELTTVPGHGTLDNSKSMKPY [P9V]")
1.95
>>> result("YHSPETTTPPGHGTLDNSKSMKPY [L6T]")
3.28
>>> result("YHSPELTLPPGHGTLDNSKSMKPY [T8L]")
2.1
>>> result("YHSPELTTPPGHGTDDNSKSMKPY [L15D]")
2.69
>>> result("YHSYELTTPPGHGTLDNSKSMKPY [P4Y]")
1.68
>>> result("YHSPELTTPPGHGTLDNSKSMKPQ [Y24Q]")
2.62
>>> result("DHSPELTTPPGHGTLDNSKSMKPY [Y1D]")
5.05
>>> result("YHSPELTTPPGHGTLDNAKSMKPY [S18A]")
2.09
>>> result("YHSPELTHPPGHGTLDNSKSMKPY [T8H]")
2.15
>>> result("YHSPELTTPPGNGTLDNSKSMKPY [H12N]")
2.49
>>> result("YHSPELTTPPGHGTLDNSKSMKGY [P23G]")
2.23
>>> result("YHSPELGTPPGHGTLDNSKSMKPY [T7G]")
2.97
>>> result("YHSPELTTPPGHGTLGNSKSMKPY [D16G]")
1.56
>>> result("YHSPELTTPPGHGTLDNSKSMKIY [P23I]")
1.69
>>> result("YHDPELTTPPGHGTLDNSKSMKPY [S3D]")
2.82
>>> result("YHSPELTTPPGHGTLKNSKSMKPY [D16K]")
1.86
>>> result("YHSPELTTPPGHGTLDNQKSMKPY [S18Q]")
2.22
>>> result("YHSPELTTPPGTGTLDNSKSMKPY [H12T]")
2.53
>>> result("YHSLELTTPPGHGTLDNSKSMKPY [P4L]")
1.95
>>> result("YHSPRLTTPPGHGTLDNSKSMKPY [E5R]")
2.66
>>> result("YHSPLLTTPPGHGTLDNSKSMKPY [E5L]")
1.67
>>> result("YHSPELTTPPGHYTLDNSKSMKPY [G13Y]")
2.07
>>> result("YYSPELTTPPGHGTLDNSKSMKPY [H2Y]")
4.04
>>> result("YHSPELTTPPGHGTLDNSKSMWPY [K22W]")
2.32
>>> result("YHSPFLTTPPGHGTLDNSKSMKPY [E5F]")
2.83
>>> result("YHSPELTTPPGHDTLDNSKSMKPY [G13D]")
2.46
>>> result("YHSPELTTPPGHGTLDNSVSMKPY [K19V]")
2.39
>>> result("YHSPELTTPPGHGTLDNSKSMKWY [P23W]")
2.67
>>> result("YHSPELTTPPGHMTLDNSKSMKPY [G13M]")
2.13
>>> result("YHSPELTTPPGHGTLDNSTSMKPY [K19T]")
2.35

All values here come from the supplement of paper PMC10567573.
